target: human GLP-2R (Homo sapiens); construct: host or cells: COS-7; assay: HitHunter cAMP assay in transiently transfected COS-7 cells, human GLP-2R; assay type: cell-based; details: Emax normalized to highest concentration of endogenous ligand; Table 2
Sequence (O95838 whole entry): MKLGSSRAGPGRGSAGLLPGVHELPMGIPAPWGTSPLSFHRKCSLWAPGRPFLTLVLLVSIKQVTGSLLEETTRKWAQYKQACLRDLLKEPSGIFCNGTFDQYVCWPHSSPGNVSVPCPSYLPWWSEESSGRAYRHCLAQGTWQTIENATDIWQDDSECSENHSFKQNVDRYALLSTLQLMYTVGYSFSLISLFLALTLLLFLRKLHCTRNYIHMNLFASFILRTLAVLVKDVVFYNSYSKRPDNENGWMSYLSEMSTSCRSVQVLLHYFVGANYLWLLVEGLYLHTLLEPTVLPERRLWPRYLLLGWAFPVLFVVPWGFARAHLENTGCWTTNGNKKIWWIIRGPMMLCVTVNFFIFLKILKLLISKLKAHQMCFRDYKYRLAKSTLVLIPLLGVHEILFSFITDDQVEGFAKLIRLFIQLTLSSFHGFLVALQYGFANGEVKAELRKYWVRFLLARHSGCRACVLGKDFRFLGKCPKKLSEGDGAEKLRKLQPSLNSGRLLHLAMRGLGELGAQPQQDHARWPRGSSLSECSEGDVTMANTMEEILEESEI
Catalogue of Efficacy GLP-2R readings, one per entry.
Could you respond with only the numeric value?

A selection of reference data follows.
> print(dat)
                                  substance       resulttype  recordednumber
1  Ac-H-Aib-DGTFISDY-K(γGlu-C16)-T-Aib-LDNLAARDFINWLIQTKITK-OH [Compound no. 34]  Efficacy GLP-2R             103
2  (C16-diacid)H-Aib-DGTFISDYST-Aib-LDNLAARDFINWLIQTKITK-OH [Compound no. 17]  Efficacy GLP-2R              90
3  Ac-H-Aib-DGTFISDYS-K(γGlu-C16)-Aib-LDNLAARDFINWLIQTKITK-OH [Compound no. 36]  Efficacy GLP-2R              76
4  H-Aib-DGTFISDYS-K(γGlu-C16)-Aib-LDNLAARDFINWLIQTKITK-OH [Compound no. 35]  Efficacy GLP-2R              88
5  (C16-diacid)HADGTFISDYSTAibLDNLAARDFINWLIQTKITKNDWKHNITQ [Compound no. 39]  Efficacy GLP-2R              78
6  H-Aib-DG-K(γGlu- γGlu-C10)-FISDYSTILDNLAARDFINWLIQTKITK-OH [Compound no. 26]  Efficacy GLP-2R              91
7  H-Aib-DGTFISDY-K(γGlu-C16)-T-Aib-LDALAARDFIEWLIQTKITK-OH [Compound no. 33]  Efficacy GLP-2R              97
8  (C16-diacid)H-Aib-EGTFISDYST-Aib-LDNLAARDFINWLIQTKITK-OH [Compound no. 19]  Efficacy GLP-2R              81

Any idea what Efficacy GLP-2R was measured for H-Aib-DG-K(γGlu-C10)-FISDYST-Aib-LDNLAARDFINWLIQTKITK-OH [Compound no. 24] ? 90

Any idea what Efficacy GLP-2R was measured for (C10-diacid)H-Aib-DGTFISDYST-Aib-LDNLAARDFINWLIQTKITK-OH [Compound no. 18] ? 90

---

molecular target: human GIPR (Homo sapiens, UniProt P48546); assay type: cell-based; parameters: host or cells: COS-7; conditions: Emax normalized to highest concentration of endogenous ligand; Table 2
Sequence (P48546 22-466): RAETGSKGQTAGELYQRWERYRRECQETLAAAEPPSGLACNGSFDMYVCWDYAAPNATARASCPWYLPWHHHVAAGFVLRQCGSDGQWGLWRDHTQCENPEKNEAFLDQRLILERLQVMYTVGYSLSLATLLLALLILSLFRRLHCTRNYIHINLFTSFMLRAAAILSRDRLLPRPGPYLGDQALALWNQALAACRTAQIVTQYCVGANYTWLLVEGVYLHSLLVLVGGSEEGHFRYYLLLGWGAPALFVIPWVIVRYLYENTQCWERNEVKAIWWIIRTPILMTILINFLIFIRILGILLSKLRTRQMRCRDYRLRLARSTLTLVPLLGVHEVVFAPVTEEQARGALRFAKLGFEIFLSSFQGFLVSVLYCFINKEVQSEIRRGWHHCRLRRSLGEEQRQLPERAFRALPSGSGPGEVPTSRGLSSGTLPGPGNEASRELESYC
Catalogue of Efficacy GIPR readings, one per entry.
Could you respond with only the numeric value?

A selection of reference data follows.
> print(dat)
                                  substance     resulttype  recordednumber
1  (C16-diacid)H-Aib-DGTFISDYST-Aib-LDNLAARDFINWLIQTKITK-OH [Compound no. 17]  Efficacy GIPR              98
2  (C16)HADGTFISDYSTILDNLAARDFIEWLIQTKITKNDWKHNITQ [Compound no. 50]  Efficacy GIPR             101

Here's the next entry for you.
Any idea what Efficacy GIPR was measured for (C16)HADGTFISDYSTILDAibLAARDFINWLIQTKITKNDWKHNITQ [Compound no. 16] ? 99

---

Catalogue of Efficacy GLP-2R readings, one per entry.
molecular target: human GLP-2R (Homo sapiens); construct: host or cells: COS-7; test: HitHunter cAMP assay in transiently transfected COS-7 cells, human GLP-2R; format: cell-based; conditions: Emax normalized to highest concentration of endogenous ligand; Table 2;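 note: cells kept 30 min at 37 °C in buffer with 1 mM IBMX, then given ligand for another 30 min at 37 °C before cAMP readout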
Could you respond with only the numeric value?

> print(dat)
                                  substance           targetortestsystem  recordednumber
1  H-Aib-DG-K(γGlu-C16)-FISDYSTILDNLAARDFINWLIQTKITK-OH [Compound no. 9]  human GLP-2R (Homo sapiens)              91
2  (C16-diacid)H-Aib-DGTFISDYST-Aib-LDALAARDFIEWLIQTKITK-OH [Compound no. 20]  human GLP-2R (Homo sapiens)              88
3  H-Aib-DGTFISDY-K(γGlu-C10)-TILDKLAARDFIEWLIATKITK-OH [Compound no. 31]  human GLP-2R (Homo sapiens)              90

Give the reported Efficacy GLP-2R for (C16)HADGTFISDYSTILDNLAARDFINWLIQTKITKAEWKHAITQ [Compound no. 49] (system: human GLP-2R (Homo sapiens)). 92

---

biological target: human GLP-1R (Homo sapiens, UniProt P43220); construct: host or cells: COS-7; assay: HitHunter cAMP assay in transiently transfected COS-7 cells, human GLP-1R; format: cell-based; conditions: Emax normalized to highest concentration of endogenous ligand; Table 3
Sequence (P43220 24-463): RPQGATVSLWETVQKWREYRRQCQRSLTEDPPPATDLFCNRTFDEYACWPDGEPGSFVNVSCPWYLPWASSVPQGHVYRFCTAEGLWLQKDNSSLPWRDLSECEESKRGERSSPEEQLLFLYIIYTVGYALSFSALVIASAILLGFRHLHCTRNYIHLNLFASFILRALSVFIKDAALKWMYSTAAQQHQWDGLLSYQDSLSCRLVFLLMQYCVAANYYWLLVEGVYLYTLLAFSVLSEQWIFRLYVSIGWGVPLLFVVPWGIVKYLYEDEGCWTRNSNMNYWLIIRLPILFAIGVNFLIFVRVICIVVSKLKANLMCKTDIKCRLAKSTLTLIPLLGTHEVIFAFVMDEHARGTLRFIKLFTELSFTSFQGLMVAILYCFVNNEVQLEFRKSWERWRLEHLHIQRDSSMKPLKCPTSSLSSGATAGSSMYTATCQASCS
Catalogue of Efficacy GLP-1R readings, one per entry.
Could you respond with only the numeric value?

> print(dat)
                                  substance                        targetortestsystem       resulttype  recordednumber
1  H-Aib-DGTFISDY-K(γGlu-C10)-T-Aib-LDNLAARDFINWLIQTKITD-OH [Compound no. 30]  human GLP-1R (Homo sapiens, UniProt P43220)  Efficacy GLP-1R              10
2  H-Aib-DGTF-K(γGlu-C16)-SDYSTILDNLAARDFINWLIQTKITK-OH [Compound no. 10]  human GLP-1R (Homo sapiens, UniProt P43220)  Efficacy GLP-1R              10

Here's the next entry for you.
Give the reported Efficacy GLP-1R for (C16-diacid)H-Aib-EGTFISDYST-Aib-LDKLAARDFINWLIQTKITK-OH [Compound no. 21] (system: human GLP-1R (Homo sapiens, UniProt P43220)). 10
